- Assay system: T1, CD47 on the surface of tumor cells (human, UniProt Q08722 19-323)
- T1 construct: whole, on cells; Same protein as m4; also called CD47 antigen on the surface of U937 and CCRF cells; SKOV-3
- Assay text: FACS, tumor cells, 1 nM
// reported FACS (MFI) per item
Attribute measured: FACS (MFI)

Binder	Attribute measured	Endpoint result
h140Hm13/h140Lm11 (antibody, V domains shown) VH: EVQLVQSGAEVKKPGASVKVSCKASGYKFTNYVMSWVRQAPGQRLEWMGYINPYNDAIKYNEKFTGRVTITRDTSASTAYMELSSLRSEDTAVYYCAREGDFYANYGRLGFAYWGQGTLVTVSS VL: DIQMTQSPSSLSASVGDRVTITCRASQDITNYLNWYQQKPGKAPKLLIYYTSRLSSGVPSRFSGSGSGTDYTFTISSLQPEDIATYFCQQGDTRPYTFGGGTKVEIK	FACS (MFI)	19400 MFI
h140Hm13/h140Lm16 (antibody, V domains shown) VH: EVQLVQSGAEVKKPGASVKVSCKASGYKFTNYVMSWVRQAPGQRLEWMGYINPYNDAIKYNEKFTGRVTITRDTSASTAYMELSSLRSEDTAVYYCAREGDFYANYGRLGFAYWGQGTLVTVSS VL: DIQMTQSPSSLSASVGDRVTITCRASQDITNYLNWYQQKPGKAPKLLIYYTSRLQSGVPSRFSGSGSGTDYTFTISSLQPEDIATYFCQQGDTSPYTFGGGTKVEIK	FACS (MFI)	12200 MFI
h140Hm13/h140Lm7 (antibody, V domains shown) VH: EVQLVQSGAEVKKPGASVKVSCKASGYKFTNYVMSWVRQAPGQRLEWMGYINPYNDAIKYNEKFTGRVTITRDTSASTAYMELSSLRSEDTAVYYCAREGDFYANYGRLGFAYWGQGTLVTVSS VL: DIQMTQSPSSLSASVGDRVTITCRASQDITNYLNWYQQKPGKAPKLLIYYTSRLHSGVPSRFSGSGSGTDYTFTISSLQPEDIATYFCQQGDTRPRTFGGGTKVEIK	FACS (MFI)	40200 MFI
h140Hm13/h140Lm17 (antibody, V domains shown) VH: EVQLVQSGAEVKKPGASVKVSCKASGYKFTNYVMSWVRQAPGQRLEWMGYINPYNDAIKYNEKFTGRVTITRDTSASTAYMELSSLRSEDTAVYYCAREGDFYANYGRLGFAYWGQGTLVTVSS VL: DIQMTQSPSSLSASVGDRVTITCRASQDITNYLNWYQQKPGKAPKLLIYYTSRLQSGVPSRFSGSGSGTDYTFTISSLQPEDIATYFCQQGDTEPYTFGGGTKVEIK	FACS (MFI)	11200 MFI
h140Hm13/h140L (antibody, V domains shown, Heavy chain mutant 140Hm13 with the unmutated light chain of hz140) VH: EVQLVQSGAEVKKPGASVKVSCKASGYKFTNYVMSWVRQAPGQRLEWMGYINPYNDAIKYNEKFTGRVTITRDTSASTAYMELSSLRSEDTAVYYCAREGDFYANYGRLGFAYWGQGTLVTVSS VL: DIQMTQSPSSLSASVGDRVTITCRASQDITNYLNWYQQKPGKAPKLLIYYTSRLHSGVPSRFSGSGSGTDYTFTISSLQPEDIATYFCQQGDTFPRTFGGGTKVEIK	FACS (MFI)	102000 MFI

Reference for the values: patent US20230406921A1
